- Tested on: 947758-054-R-J2-PDC spheroid growth, percent test/control;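 further: spheroids exposed to compounds for one week before readout; 100% = DMSO vehicle control wells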
- method description: Anticancer human tumor 947758-054-R-J2-PDC patient-derived colon adenocarcinoma cell line growth inhibition [CLK]
- condition details: second compound 1 µM; first compound 1 µM; hits give low values; spheroids with HUVEC and MSC
Under this convention, 1 denotes viability, T/C strictly below 2% and 0 denotes viability, T/C at or above 2%.

INPUT: Is it true that viability, T/C reported for CC1(C)CCC(CN2CCN(c3ccc(C(=O)NS(=O)(=O)c4ccc(NCC5CCOCC5)c([N+](=O)[O-])c4)c(Oc4cnc5[nH]ccc5c4)c3)CC2)=C(c2ccc(Cl)cc2)C1 + CNC(=O)c1ccc(Nc2nc(OC3CCCC3)c3c(-c4ccc5nc(C)oc5c4)c[nH]c3n2)c(OC)c1 is less than 2%?
OUTPUT: 0

INPUT: Is it true that viability, T/C reported for O=c1[nH]cc(F)c(=O)[nH]1 + CN1CCN(c2cc(C(=O)Nc3cc4cc(-c5cnn(C)c5)ccc4cn3)ccn2)CC1 is less than 2%?
OUTPUT: 1

INPUT: Is it true that viability, T/C reported for COc1cccc2c1C(=O)c1c(O)c3c(c(O)c1C2=O)CC(O)(C(=O)CO)CC3OC1CC(N)C(O)C(C)O1 (stereo not drawn) + CN1CCN(c2cc(C(=O)Nc3cc4cc(-c5cnn(C)c5)ccc4cn3)ccn2)CC1 is less than 2%?
OUTPUT: 1

INPUT: Is it true that viability, T/C reported for C=C(F)C(=O)N1CCN(c2nc(OCC3CCCN3C)nc3c2CCN(c2cccc4cccc(Cl)c24)C3)CC1CC#N (stereo not drawn) + CN1CCN(c2cc(C(=O)Nc3cc4cc(-c5cnn(C)c5)ccc4cn3)ccn2)CC1 is less than 2%?
OUTPUT: 0

INPUT: Is it true that viability, T/C reported for CC1COCCN1c1cc(C2(S(C)(=N)=O)CC2)nc(-c2ccnc3[nH]ccc23)n1 (stereo not drawn) + CNC(=O)c1ccc(Nc2nc(OC3CCCC3)c3c(-c4ccc5nc(C)oc5c4)c[nH]c3n2)c(OC)c1 is less than 2%?
OUTPUT: 0

INPUT: Is it true that viability, T/C reported for COc1c(OCCCN2CCOCC2)ccc2c3n(c(=NC(=O)c4cnc(N)nc4)nc12)CCN3 + CNC(=O)c1ccc(Nc2nc(OC3CCCC3)c3c(-c4ccc5nc(C)oc5c4)c[nH]c3n2)c(OC)c1 is less than 2%?
OUTPUT: 0

INPUT: Is it true that viability, T/C reported for O=c1[nH]cc(F)c(=O)[nH]1 + CNC(=O)c1ccc(Nc2nc(OC3CCCC3)c3c(-c4ccc5nc(C)oc5c4)c[nH]c3n2)c(OC)c1 is less than 2%?
OUTPUT: 0

INPUT: Is it true that viability, T/C reported for O=C(c1cc(Cc2n[nH]c(=O)c3ccccc23)ccc1F)N1CCN(C(=O)C2CC2)CC1 + CNC(=O)c1ccc(Nc2nc(OC3CCCC3)c3c(-c4ccc5nc(C)oc5c4)c[nH]c3n2)c(OC)c1 is less than 2%?
OUTPUT: 0

Data credit: PubChem BioAssay AID2060605
